Taken from patent US20070037752A1.

# tgt: alanyl aminopeptidases (APN) (Homo sapiens, UniProt P15144)
# Sequence (P15144 whole entry, species assumed): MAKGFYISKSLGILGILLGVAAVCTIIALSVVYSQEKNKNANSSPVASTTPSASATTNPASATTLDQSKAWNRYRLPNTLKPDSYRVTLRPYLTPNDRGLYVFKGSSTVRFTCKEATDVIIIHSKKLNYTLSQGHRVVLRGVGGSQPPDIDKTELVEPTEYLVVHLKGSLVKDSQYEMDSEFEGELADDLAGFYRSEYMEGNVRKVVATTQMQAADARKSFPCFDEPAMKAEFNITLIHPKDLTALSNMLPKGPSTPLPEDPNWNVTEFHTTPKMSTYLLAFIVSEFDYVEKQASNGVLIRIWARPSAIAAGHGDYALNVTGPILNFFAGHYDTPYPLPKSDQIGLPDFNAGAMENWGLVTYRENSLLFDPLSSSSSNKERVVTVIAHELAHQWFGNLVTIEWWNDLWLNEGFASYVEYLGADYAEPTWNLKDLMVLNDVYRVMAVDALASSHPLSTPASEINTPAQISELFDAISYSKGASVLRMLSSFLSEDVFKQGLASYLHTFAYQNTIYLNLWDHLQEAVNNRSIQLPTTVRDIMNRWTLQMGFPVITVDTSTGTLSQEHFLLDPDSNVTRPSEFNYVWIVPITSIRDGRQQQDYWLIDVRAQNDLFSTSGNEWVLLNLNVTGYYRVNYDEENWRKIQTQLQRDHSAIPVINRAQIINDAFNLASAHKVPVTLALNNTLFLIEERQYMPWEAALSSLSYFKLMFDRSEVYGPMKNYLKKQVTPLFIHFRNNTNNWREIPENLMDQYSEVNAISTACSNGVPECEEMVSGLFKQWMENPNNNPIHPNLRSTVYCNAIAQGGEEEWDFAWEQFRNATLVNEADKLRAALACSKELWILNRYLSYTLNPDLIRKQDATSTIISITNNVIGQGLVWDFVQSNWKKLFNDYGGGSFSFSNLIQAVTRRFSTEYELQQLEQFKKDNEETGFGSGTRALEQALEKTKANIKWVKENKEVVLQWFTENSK
# protocolText: Inhibition of alanyl aminopeptidase enzymatic activity, fluorogenic substrate (Ala)2-rhodamine 110
# Format: biochemical
# appliedConditions: Table 4, unstarred values; read-out: IC50APN
The threshold is 20 µM. Values of IC50 beneath it are tagged t; values meeting or exceeding it are tagged f.

Request: Regarding O=C(COc1cccc2ccccc12)N/N=C/c1ccco1 [A4.023] , kindly confirm whether its IC50 is beneath 20 µM.
Result: t

Request: Answer whether the molecule Cc1ccc(/C=N/NC2=NC(=O)CS2)o1 [A4.082] has IC50 strictly less than 20 µM
Result: f

Request: Please state whether IC50 is below 20 µM for CC1=NNC(=O)C1CCC(=O)N/N=C\C=C\c1ccco1 (centres unmarked) [A4.068]
Result: f

Request: Dear colleague, could you confirm whether IC50 of CC(/C=N/NC(=O)c1ccco1)=C\c1ccco1 [A4.088] falls below 20 µM? Thanks.
Result: f

Request: Identify whether the molecule O=C(N/N=C/c1ccco1)c1ccc(=O)[nH]n1 [A4.063] records IC50 below 20 µM.
Result: f

Request: Take the molecule CC(=O)n1cc(/C=C/C=N/NC(=O)CC#N)c2ccccc21 [A4.113] and say whether its IC50 is less than 20 µM.
Result: f

Request: Please indicate whether the reported IC50 of Cc1ccc(/C=N/NC(=O)COc2cccc(Cl)c2)o1 [A4.153] is strictly below 20 µM.
Result: f

Request: Find out if reported IC50 for COCc1c(C(=O)N/N=C/c2ccc(C)o2)nnn1-c1nonc1N [A4.022] is less than 20 µM
Result: t

Request: Does this molecule meet the criterion IC50 < 20 µM? Cc1ccc(/C=N/NC(=O)c2cn(-c3nonc3N)nn2)o1 [A4.016]
Result: t

Request: Is IC50 strictly under 20 µM for the entry O=C(CCn1nnc2ccccc21)N/N=C/c1ccco1 [A4.169] ?
Result: f

Request: Lab note: IC50 threshold 20 µM. Does this molecule come in strictly under it? O=C(N/N=C/c1ccco1)c1ccccc1 [A4.120]
Result: f
